# protocol-notes: in vivo
# Set-up: species or system Wistarratten
# conditions: rat, po, 50 mg/kg
endpoint-label: concentration at 14 h (ng/mL)
All answers are understood in ng/mL, so give the number only.

Item COCCNC(=O)c1ccnc(C(=O)NCCOC)c1 : provide concentration at 14 h
300

====

# protocol-notes: in vivo
# Design: species or system Wistarratten
# conditions: rat, po, 50 mg/kg
endpoint-label: concentration at 5 h (ng/mL)
State the answer as a number, implicitly in ng/mL.

Name the recorded concentration at 5 h of the item COCCNC(=O)c1ccnc(C(=O)NCCOC)c1 in your answer.
500

====

# protocol-notes: in vivo
# Design: species or system Wistarratten
# conditions: rat, po, 50 mg/kg
endpoint-label: concentration at 0.25 h
Report the figure along with its unit, number first.

Tell me its concentration at 0.25 h given COCCNC(=O)c1ccnc(C(=O)NCCOC)c1 as the entry.
38700 ng/mL
